Below, each entry is listed with its recorded pIC50.
EXPERIMENTAL_TARGET: SMYD3 (Homo sapiens (Human))
Sequence (Q9H7B4 whole entry): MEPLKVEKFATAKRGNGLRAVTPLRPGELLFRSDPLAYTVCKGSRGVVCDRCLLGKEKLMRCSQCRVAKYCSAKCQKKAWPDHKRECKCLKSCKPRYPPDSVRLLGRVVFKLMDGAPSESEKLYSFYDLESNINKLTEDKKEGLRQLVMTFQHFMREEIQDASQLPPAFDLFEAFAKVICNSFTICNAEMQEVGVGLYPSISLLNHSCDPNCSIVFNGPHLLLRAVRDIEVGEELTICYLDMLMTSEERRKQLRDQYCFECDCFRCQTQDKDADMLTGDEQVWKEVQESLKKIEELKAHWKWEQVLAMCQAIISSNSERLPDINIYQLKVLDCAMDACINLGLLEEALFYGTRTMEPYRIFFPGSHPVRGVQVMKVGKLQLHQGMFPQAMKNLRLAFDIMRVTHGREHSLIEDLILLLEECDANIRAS
RUN_DESCRIPTION: SMYD3 cell assay (Trimethyl-MEKK2 In-Cell Western in 293T/17 cells)
Type: cell-based
RUN_CONDITIONS: read-out: SMYD3 Cell IC50*
Please treat pIC50 as minus the base-10 logarithm of the molar concentration.

Recorded results for 3 compounds are shown here.
{"columns": ["COMPOUND", "EXPERIMENTAL_TARGET", "OBSERVED_MEASUREMENT"],
 "data": [
  ["O=C(N[C@H]1C[C@H]2CC[C@@H](C1)N2S(=O)(=O)[C@H]1CC[C@H](NCCN2CCOCC2)CC1)c1cc(C2CC2)on1", "SMYD3 (Homo sapiens (Human))", 6.68],
  ["COCCCN1C2CCC1CN(S(=O)(=O)N1[C@@H]3CC[C@H]1C[C@@H](NC(=O)c1cc(C4CC4)on1)C3)C2", "SMYD3 (Homo sapiens (Human))", 6.93],
  ["CNC1CCC(CS(=O)(=O)N2CC[C@H](NC(=O)c3cc(C4CC4)on3)C[C@@H]2C)C1 (stereo partly shown)", "SMYD3 (Homo sapiens (Human))", 7.57]
]}

Could you now consider this next compound?
Prompt line: Fill in pIC50 for record CN1CCC2(CC1)CN(S(=O)(=O)N1[C@@H]3CC[C@H]1C[C@@H](NC(=O)c1cc(C4CC4)on1)C3)C2
Response line: 7.52

====

EXPERIMENTAL_TARGET: SMYD3 (Homo sapiens (Human))
RUN_DESCRIPTION: SMYD3 biochemical assay (SPA, 3H-SAM methylation of MEKK2 protein substrate)
RUN_CONDITIONS: average of n = 1 to n = 50; read-out: SMYD3 Biochem IC50
Source text: S-adenosylmethionine (SAM), S-adenosylhomocysteine (SAH), Tris, Tween20, dimethylsulfoxide (DMSO), bovine skin gelatin (BSG), and Tris(2-carboxyethyl)phosphine hydrochloride solution (TCEP) were purchased from Sigma-Aldrich at the highest level of purity possible. ^3H-SAM was purchase from American Radiolabeled Chemicals with a specific activity of 80 Ci/mmol. 384-well opaque white OptiPlates and SPA beads (Perkin Elmer, catalog # RPNQ0013) were purchased from PerkinElmer. […]
pIC50: −log10 of the molar value.
Criterion: pIC50 meeting or surpassing 7. Met: Y. Not met: N.

Examples from the recorded data:
{"columns": ["COMPOUND", "CLASS_LABEL"],
 "data": [
  ["C[C@H]1C[C@@H](NC(=O)c2cc(C3CC3)on2)CCN1S(=O)(=O)CCCNCC(C)(C)C [compound 635]", "Y"],
  ["CC1CN(S(=O)(=O)N2CC[C@H](NC(=O)c3cc(C4CC4)on3)C[C@@H]2C)CCN1C (some centres unmarked) [compound 699]", "N"],
  ["CCN1CCN(S(=O)(=O)N2[C@@H]3CCC[C@@H]2CC(NC(=O)c2cc(C4CC4)on2)C3)CC1 (some centres unmarked) [compound 765]", "N"],
  ["C[C@H]1C[C@@H](NC(=O)c2cc(C3CC3)on2)CCN1S(=O)(=O)NCc1c(F)cccc1Cl [compound 754]", "N"],
  ["C[C@H]1C[C@@H](NC(=O)c2cc(C3CC3)on2)CCN1S(=O)(=O)CCCNCC1CC1 [compound 630]", "Y"],
  ["C[C@H]1CN(S(=O)(=O)N2CC[C@H](NC(=O)c3cc(C4CC4)on3)C[C@@H]2C)CCN1C [compound 735]", "N"]
]}

Prompt line: Is it the case that C[C@H]1C[C@@H](NC(=O)c2cc(C3CC3)on2)CCN1S(=O)(=O)N1CC2CCC1CN2C (some centres unmarked) [compound 631] has pIC50 reaching or exceeding 7?
Response line: Y

Prompt line: Hi team, for C[C@H]1C[C@@H](NC(=O)c2cc(C3CC3)on2)CCN1S(=O)(=O)N1CCCN(C)CC1 [compound 639] , is the recorded pIC50 at or above 7?
Response line: Y

Prompt line: In plain terms: is recorded pIC50 at least 7 for C[C@H]1CN(S(=O)(=O)CC2CCN(CCN3CCOCC3)CC2)CC[C@H]1NC(=O)c1cc(C2CC2)on1 [compound 738] ?
Response line: N

Prompt line: # check: pIC50 of C[C@H]1CN(S(=O)(=O)NC2CCNCC2)CC[C@H]1NC(=O)c1cc(C2CC2)on1 [compound 646] is greater than or equal to 7
Response line: Y

Prompt line: Kindly determine if pIC50 recorded for CN(C1CCNCC1)S(=O)(=O)N1CC[C@H](NC(=O)c2cc(C3CC3)on2)C[C@H]1Cc1ccccc1 [compound 715] is above or exactly 7.
Response line: N

Prompt line: Reported pIC50 at or above 7? CC1(C(=O)N2CCC(NC(=O)c3cc(C4CC4)on3)CC2)CCNCC1 [compound 760]
Response line: N

Prompt line: I'd appreciate it if you could say whether O=C(N[C@H]1C[C@H]2CC[C@@H](C1)N2S(=O)(=O)CCc1ccncc1)c1cc(C2CC2)on1 [compound 739] has pIC50 at least equal to 7.
Response line: N

Prompt line: Decide: pIC50 of C[C@H]1CN(S(=O)(=O)N(C)C2CCN(Cc3ccccc3)CC2)CC[C@H]1NC(=O)c1cc(C2CC2)on1 [compound 719] >= 7?
Response line: N

Prompt line: Check the entry C[C@@H]1CN(S(=O)(=O)N2CC[C@H](NC(=O)c3cc(C4CC4)on3)C[C@@H]2C)C[C@H](C)N1C [compound 755] : does pIC50 equal or exceed 7?
Response line: N

Prompt line: Given the entry O=C(N[C@H]1C[C@H]2CC[C@@H](C1)N2S(=O)(=O)CCNCCc1ccccc1)c1cc(C2CC2)on1 [compound 705] , answer whether its pIC50 meets or surpasses 7.
Response line: N

Prompt line: Threshold query (pIC50 >= 7) on C[C@@H]1CN(S(=O)(=O)CC2CCNCC2)[C@H](C)C[C@@H]1NC(=O)c1cc(C2CC2)on1 [compound 629]
Response line: Y

Prompt line: pIC50 >= 7 for C[C@H]1C[C@@H](NC(=O)c2cc(C3CC3)on2)CCN1S(=O)(=O)c1ccnc(N)c1 [compound 756] ?
Response line: N

Prompt line: Say whether CNC/C=C/S(=O)(=O)N1CCC(NC(=O)c2cc(C3CC3)on2)CC1 [compound 727] shows pIC50 of 7 or more.
Response line: N

Prompt line: Could you please find out whether C[C@H]1CN(S(=O)(=O)c2ccc(C(C)(C)N)cc2)CC[C@H]1NC(=O)c1cc(C2CC2)on1 [compound 627] has pIC50 that meets 7 or exceeds it?
Response line: Y

Prompt line: In plain terms: is recorded pIC50 at least 7 for C[C@H]1C[C@@H](NC(=O)c2cc(C3CC3)on2)CCN1S(=O)(=O)CCCNc1ccccc1 [compound 697] ?
Response line: N

Prompt line: Say whether C[C@H]1C[C@@H](NC(=O)c2cc(C3CC3)on2)CCN1S(=O)(=O)c1cccc(N)n1 [compound 708] shows pIC50 of 7 or more.
Response line: N

Prompt line: Exam item: decide whether the reported pIC50 for CCC1CN(S(=O)(=O)N2[C@@H]3CC[C@H]2C[C@@H](NC(=O)c2cc(C4CC4)on2)C3)CCN1C (some centres unmarked) [compound 713] is at least 7.
Response line: N

====

EXPERIMENTAL_TARGET: SMYD3 (Homo sapiens (Human))
RUN_DESCRIPTION: SMYD3 cell assay (Trimethyl-MEKK2 In-Cell Western in 293T/17 cells)
Assay type: cell-based
RUN_CONDITIONS: 293T/17 cells; read-out: SMYD3 Cell IC50 (μM)*
VALUE_KIND: IC50

# count of solved cases: 3
{"columns": ["MOLECULE", "EXPERIMENTAL_TARGET", "VALUE_KIND", "OBSERVED_MEASUREMENT"],
 "data": [
  ["C[C@H]1C[C@H](NC(=O)c2cc(C3CC3)on2)CCN1S(=O)(=O)c1cn(C)cn1", "SMYD3 (Homo sapiens (Human))", "IC50", "> 40 µM"],
  ["C[C@@H]1C[C@H](NC(=O)c2cc(C3CC3)on2)CCN1C(=O)c1ccc2[nH]cnc2c1", "SMYD3 (Homo sapiens (Human))", "IC50", "6.01 µM"],
  ["CC(=O)Nc1ccc(S(=O)(=O)N2CC[C@H](NC(=O)c3cc(C4CC4)on3)C[C@H]2C)cc1", "SMYD3 (Homo sapiens (Human))", "IC50", "> 10 µM"]
]}

Prompt line: Note IC50 for the molecule shown: CC(C)CNc1ccc(S(=O)(=O)N2C3CCCC2CC(NC(=O)c2cc(C4CC4)on2)C3)cn1 (stereo not drawn)
Response line: 6.16 µM

Prompt line: Read the entry C[C@H](C(=O)N1CC[C@H](NC(=O)c2cc(C3CC3)on2)C[C@@H]1C)C1CCNCC1 and write its reported IC50.
Response line: 8.28 µM

From: patent US10577363B2
